# Test system: MOLM-13
# MEASUREMENT DESCRIPTION: In vitro combination studies, CellTitre-Glo cell viability
# PARTICULARS: MOLM-13; in combination with Compound 1
METRIC NAME: Synergy analysis for combinations with Compound 1

Worked examples follow.
| COMPOUND | RESULT |
| --- | --- |
| C[C@@H]1C[C@H]2[C@@H]3CCC4=CC(=O)C=C[C@]4(C)[C@@]3(F)[C@@H](O)C[C@]2(C)[C@@]1(O)C(=O)CO | No |
| CC(C)C[C@H](NC(=O)[C@@H](NC(=O)c1cccc(-c2ccccc2)n1)[C@@H](C)O)B(O)O | No |
| CO[C@H]1CC[C@H](N2C(=O)CNc3ncc(-c4ccc(C(C)(C)O)nc4)nc32)CC1 [CC-223, reference compound] | Yes |
| FC(F)(F)c1ccc(CNc2ccc(Cc3c[nH]c4ncc(Cl)cc34)cn2)cn1 | Yes |

Lab note: next compound to report on.
Item: C[C@H](NC(=O)Cc1cc(F)cc(F)c1)C(=O)N[C@@H]1C(=O)N(C)c2ccccc2-c2ccccc21 | Synergy analysis for combinations with Compound 1: No

Data provenance is patent US20190030018A1.
